tested on: 889142-216-R-J1-PDC complex spheroid viability; experiment: Anticancer human tumor 889142-216-R-J1-PDC patient-derived bladder carcinoma cell line growth inhibition [POLQ]; details: second compound 0.316 µM; first compound 0.316 µM; active compounds read low
Hi! Just check whether viability, T/C is below 80%. Below gives Met, equal or above gives Not met.

Field: example entries. Status: answers known.
- Compound: "COc1ccc([C@@H](O)c2cc(-c3ncnc4cc(N5CCOCC5)ccc34)c(F)cc2Cl)nn1 + COC1C(OC(N)=O)C(O)C(Oc2ccc3c(O)c(NC(=O)c4ccc(O)c(CC=C(C)C)c4)c(=O)oc3c2C)OC1(C)C"
  Assigned category: "Not met"
- Compound: "CC1COCCN1c1cc(-c2ccnn2C)c2ccnc(-c3ccn[nH]3)c2n1 (stereo not given) + Cc1cccc(N(C)C(=O)C2C(O)CCN2c2nc(C)cc(C(F)(F)F)c2C#N)c1"
  Assigned category: "Met"

Prompt: Please state whether viability, T/C is below 80% for C=CCn1c(=O)c2cnc(Nc3ccc(N4CCN(C)CC4)cc3)nc2n1-c1cccc(C(C)(C)O)n1 + Cc1cccc(N(C)C(=O)C2C(O)CCN2c2nc(C)cc(C(F)(F)F)c2C#N)c1
Response: Met

Prompt: Please state whether viability, T/C is below 80% for CCc1cc2c(N3CCc4c(cc(Cn5ccnc5)cc4-c4cn(C)nc4C(F)(F)F)C3=O)cc(C)nc2c(OC)n1 + COC1C(OC(N)=O)C(O)C(Oc2ccc3c(O)c(NC(=O)c4ccc(O)c(CC=C(C)C)c4)c(=O)oc3c2C)OC1(C)C
Response: Not met

Prompt: Please state whether viability, T/C is below 80% for C=CCn1c(=O)c2cnc(Nc3ccc(N4CCN(C)CC4)cc3)nc2n1-c1cccc(C(C)(C)O)n1 + Nc1ccc(C#CCN(C(=O)Cc2ncc(C(F)(F)F)cc2C(F)(F)F)c2ccc(F)cc2)nn1
Response: Met

Prompt: Please state whether viability, T/C is below 80% for COc1cc(C2c3cc4c(cc3C(OC3OC5COC(C)OC5C(O)C3O)C3COC(=O)C23)OCO4)cc(OC)c1O (stereo not given) + COC1C(OC(N)=O)C(O)C(Oc2ccc3c(O)c(NC(=O)c4ccc(O)c(CC=C(C)C)c4)c(=O)oc3c2C)OC1(C)C
Response: Met

Prompt: Please state whether viability, T/C is below 80% for O=C(c1cc(Cc2n[nH]c(=O)c3ccccc23)ccc1F)N1CCN(C(=O)C2CC2)CC1 + COC1C(OC(N)=O)C(O)C(Oc2ccc3c(O)c(NC(=O)c4ccc(O)c(CC=C(C)C)c4)c(=O)oc3c2C)OC1(C)C
Response: Not met

Prompt: Please state whether viability, T/C is below 80% for C=CC(=O)N1CCN(c2nc(=O)n(-c3c(C)ccnc3C(C)C)c3nc(-c4c(O)cccc4F)c(F)cc23)C(C)C1 (stereo not given) + Cc1cccc(N(C)C(=O)C2C(O)CCN2c2nc(C)cc(C(F)(F)F)c2C#N)c1
Response: Not met

Prompt: Please state whether viability, T/C is below 80% for Nc1ccn(C2OC(CO)C(O)C2(F)F)c(=O)n1 (stereo not given) + Cc1cccc(N(C)C(=O)C2C(O)CCN2c2nc(C)cc(C(F)(F)F)c2C#N)c1
Response: Met

* * *

test system: 889142-216-R-J1-PDC complex spheroid viability; test: Anticancer human tumor 889142-216-R-J1-PDC cell line growth inhibition [POLQ]; details: second compound 10 µM; first compound 0.316 µM; active compounds read low;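 note: spheroids exposed to compounds for seven days; 100% = DMSO vehicle control viability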
Endpoint label: viability, T/C (%)
# value in %; strip the unit string

- Compound: "COc1ccc([C@@H](O)c2cc(-c3ncnc4cc(N5CCOCC5)ccc34)c(F)cc2Cl)nn1 + Cc1cccc(N(C)C(=O)C2C(O)CCN2c2nc(C)cc(C(F)(F)F)c2C#N)c1"
  viability, T/C [%]: 63.6
- Compound: "C#Cc1c(F)ccc2cc(O)cc(-c3ncc4c(N5CC6CCC(C5)N6)nc(OCC56CCCN5CC(F)C6)nc4c3F)c12 (stereo unspecified) + COC1C(OC(N)=O)C(O)C(Oc2ccc3c(O)c(NC(=O)c4ccc(O)c(CC=C(C)C)c4)c(=O)oc3c2C)OC1(C)C"
  viability, T/C [%]: 76.1
- Compound: "C=CC(=O)N1CCN(c2nc(=O)n(-c3c(C)ccnc3C(C)C)c3nc(-c4c(O)cccc4F)c(F)cc23)C(C)C1 (stereo unspecified) + Nc1ccc(C#CCN(C(=O)Cc2ncc(C(F)(F)F)cc2C(F)(F)F)c2ccc(F)cc2)nn1"
  viability, T/C [%]: 121
- Compound: "COc1cc2cc(C(=O)CCC(=O)O)sc2cc1OC + Nc1ccc(C#CCN(C(=O)Cc2ncc(C(F)(F)F)cc2C(F)(F)F)c2ccc(F)cc2)nn1"
  viability, T/C [%]: 93.7
- Compound: "CC1COCCN1c1cc(-c2ccnn2C)c2ccnc(-c3ccn[nH]3)c2n1 (stereo unspecified) + Nc1ccc(C#CCN(C(=O)Cc2ncc(C(F)(F)F)cc2C(F)(F)F)c2ccc(F)cc2)nn1"
  viability, T/C [%]: 56.3
- Compound: "CCc1cc2c(N3CCc4c(cc(Cn5ccnc5)cc4-c4cn(C)nc4C(F)(F)F)C3=O)cc(C)nc2c(OC)n1 + COC1C(OC(N)=O)C(O)C(Oc2ccc3c(O)c(NC(=O)c4ccc(O)c(CC=C(C)C)c4)c(=O)oc3c2C)OC1(C)C"
  viability, T/C [%]: 111
- Compound: "CCc1cc2c(N3CCc4c(cc(Cn5ccnc5)cc4-c4cn(C)nc4C(F)(F)F)C3=O)cc(C)nc2c(OC)n1 + Cc1cccc(N(C)C(=O)C2C(O)CCN2c2nc(C)cc(C(F)(F)F)c2C#N)c1"
  viability, T/C [%]: 109
- Compound: "O=C(Nc1ccc(O)c(NS(=O)(=O)c2ccc(F)cc2)c1)c1ccc(-c2ccccc2)cc1 + Cc1cccc(N(C)C(=O)C2C(O)CCN2c2nc(C)cc(C(F)(F)F)c2C#N)c1"
  viability, T/C [%]: 97
- Compound: "O=C(c1cc(Cc2n[nH]c(=O)c3ccccc23)ccc1F)N1CCN(C(=O)C2CC2)CC1 + Cc1cccc(N(C)C(=O)C2C(O)CCN2c2nc(C)cc(C(F)(F)F)c2C#N)c1"
  viability, T/C [%]: 68.7
- Compound: "O=c1[nH]cc(F)c(=O)[nH]1 + Cc1cccc(N(C)C(=O)C2C(O)CCN2c2nc(C)cc(C(F)(F)F)c2C#N)c1"
  viability, T/C [%]: 83.3

Prompt: Return viability, T/C (reported value) for this compound: COc1ccc([C@@H](O)c2cc(-c3ncnc4cc(N5CCOCC5)ccc34)c(F)cc2Cl)nn1 + COC1C(OC(N)=O)C(O)C(Oc2ccc3c(O)c(NC(=O)c4ccc(O)c(CC=C(C)C)c4)c(=O)oc3c2C)OC1(C)C
Response: 104

* * *

tested on: 889142-216-R-J1-PDC complex spheroid viability; experiment: Anticancer human tumor 889142-216-R-J1-PDC cell line growth inhibition [POLQ]; settings: second compound 0.0316 µM; first compound 0.1 µM; active compounds read low;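 note: spheroids exposed to compounds for seven days; 100% = DMSO vehicle control viability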
Endpoint label: viability, T/C (%)
# value in %; strip the unit string

Use these answered entries as a reference point.
- Compound: "CCc1cc2c(N3CCc4c(cc(Cn5ccnc5)cc4-c4cn(C)nc4C(F)(F)F)C3=O)ccnc2c(OC)n1 + Cc1cccc(N(C)C(=O)C2C(O)CCN2c2nc(C)cc(C(F)(F)F)c2C#N)c1"
  Value units: "%"
  viability, T/C: 98.7
- Compound: "COc1ccc([C@@H](O)c2cc(-c3ncnc4cc(N5CCOCC5)ccc34)c(F)cc2Cl)nn1 + COC1C(OC(N)=O)C(O)C(Oc2ccc3c(O)c(NC(=O)c4ccc(O)c(CC=C(C)C)c4)c(=O)oc3c2C)OC1(C)C"
  Value units: "%"
  viability, T/C: 88.3
- Compound: "Cn1ncnc1[C@H]1c2n[nH]c(=O)c3cc(F)cc(c23)N[C@@H]1c1ccc(F)cc1 + Nc1ccc(C#CCN(C(=O)Cc2ncc(C(F)(F)F)cc2C(F)(F)F)c2ccc(F)cc2)nn1"
  Value units: "%"
  viability, T/C: 87.4
- Compound: "CCc1c2c(nc3ccc(O)cc13)-c1cc3c(c(=O)n1C2)COC(=O)[C@]3(O)CC + Cc1cccc(N(C)C(=O)C2C(O)CCN2c2nc(C)cc(C(F)(F)F)c2C#N)c1"
  Value units: "%"
  viability, T/C: 30.2

Prompt: Return viability, T/C (reported value) for this compound: COc1ccc([C@@H](O)c2cc(-c3ncnc4cc(N5CCOCC5)ccc34)c(F)cc2Cl)nn1 + Nc1ccc(C#CCN(C(=O)Cc2ncc(C(F)(F)F)cc2C(F)(F)F)c2ccc(F)cc2)nn1
Response: 80.6

* * *

Entries and their measured viability, T/C follow.
test system: 889142-216-R-J1-PDC complex spheroid viability; assay: Anticancer human tumor 889142-216-R-J1-PDC cell line growth inhibition [POLQ]; conditions: second compound 0.316 µM; first compound 0.001 µM; active compounds read low;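 note: spheroids exposed to compounds for seven days; 100% = DMSO vehicle control viability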
# value in %; strip the unit string

Use these answered entries as a reference point.
- Molecule: "CC[C@@]1(O)C(=O)OCc2c1cc1n(c2=O)Cc2cc3c(CN(C)C)c(O)ccc3nc2-1 + Nc1ccc(C#CCN(C(=O)Cc2ncc(C(F)(F)F)cc2C(F)(F)F)c2ccc(F)cc2)nn1"
  viability, T/C [%]: 77.6
- Molecule: "Cn1ncnc1[C@H]1c2n[nH]c(=O)c3cc(F)cc(c23)N[C@@H]1c1ccc(F)cc1 + Cc1cccc(N(C)C(=O)C2C(O)CCN2c2nc(C)cc(C(F)(F)F)c2C#N)c1"
  viability, T/C [%]: 111
- Molecule: "CC[C@@]1(O)C(=O)OCc2c1cc1n(c2=O)Cc2cc3c(CN(C)C)c(O)ccc3nc2-1 + Cc1cccc(N(C)C(=O)C2C(O)CCN2c2nc(C)cc(C(F)(F)F)c2C#N)c1"
  viability, T/C [%]: 111
- Molecule: "Cn1ncnc1[C@H]1c2n[nH]c(=O)c3cc(F)cc(c23)N[C@@H]1c1ccc(F)cc1 + Nc1ccc(C#CCN(C(=O)Cc2ncc(C(F)(F)F)cc2C(F)(F)F)c2ccc(F)cc2)nn1"
  viability, T/C [%]: 102

Now look at this one.
Prompt: Return viability, T/C (reported value) for this molecule: Cn1ncnc1[C@H]1c2n[nH]c(=O)c3cc(F)cc(c23)N[C@@H]1c1ccc(F)cc1 + COC1C(OC(N)=O)C(O)C(Oc2ccc3c(O)c(NC(=O)c4ccc(O)c(CC=C(C)C)c4)c(=O)oc3c2C)OC1(C)C
Response: 87.8
